So I've got a bunch of compounds here, and I need their β-sheet content of apo-hTf values.
Measurement target: apo-human transferrin (apo-hTf) (Homo sapiens)
Test name: Far-UV circular dichroism titration of apo-hTf, secondary structure content
Condition summary: compound concentration 0.8 (M)
Lab book: enter the figure in %, no units written.

Q. Recall the reported β-sheet content of apo-hTf of [Cl][Zr+2][Cl].c1cc[cH-]c1.c1cc[cH-]c1 [Cp2ZrCl2] when tested on apo-human transferrin (apo-hTf) (Homo sapiens).
A. 18.2

Q. Recall the reported β-sheet content of apo-hTf of C1CCCC1.C1CCCC1.[Cl][Nb][Cl] [Cp2NbCl2] when tested on apo-human transferrin (apo-hTf) (Homo sapiens).
A. 17.9

Q. Recall the reported β-sheet content of apo-hTf of [Cl-].[Cl-].[Mo+4].c1cc[cH-]c1.c1cc[cH-]c1 [Cp2MoCl2] when tested on apo-human transferrin (apo-hTf) (Homo sapiens).
A. 18.3

Q. Recall the reported β-sheet content of apo-hTf of [Cl-].[Cl-].[Hf+4].c1cc[cH-]c1.c1cc[cH-]c1 [Cp2HfCl2] when tested on apo-human transferrin (apo-hTf) (Homo sapiens).
A. 17.6

Q. Recall the reported β-sheet content of apo-hTf of N.N.[Cl][Pt][Cl] [(NH3)2Pt(II)Cl2, cis-diamminedichloroplatinum (II), reference compound] when tested on apo-human transferrin (apo-hTf) (Homo sapiens).
A. 18.2

Q. Recall the reported β-sheet content of apo-hTf of [Cl-].[Cl-].[V+4].c1cc[cH-]c1.c1cc[cH-]c1 [Cp2VCl2] when tested on apo-human transferrin (apo-hTf) (Homo sapiens).
A. 18.1

Q. Recall the reported β-sheet content of apo-hTf of [Cl-].[Cl-].[Ti+4].c1cc[cH-]c1.c1cc[cH-]c1 [Cp2TiCl2, titanocene dichloride] when tested on apo-human transferrin (apo-hTf) (Homo sapiens).
A. 18.2

Q. Recall the reported β-sheet content of apo-hTf of C1CCCC1.C1CCCC1.[Cl][W][Cl] [Cp2WCl2] when tested on apo-human transferrin (apo-hTf) (Homo sapiens).
A. 18.3

----------
Measurement target: apo-human transferrin (apo-hTf) (Homo sapiens, UniProt P02787)
Sequence (P02787 20-698): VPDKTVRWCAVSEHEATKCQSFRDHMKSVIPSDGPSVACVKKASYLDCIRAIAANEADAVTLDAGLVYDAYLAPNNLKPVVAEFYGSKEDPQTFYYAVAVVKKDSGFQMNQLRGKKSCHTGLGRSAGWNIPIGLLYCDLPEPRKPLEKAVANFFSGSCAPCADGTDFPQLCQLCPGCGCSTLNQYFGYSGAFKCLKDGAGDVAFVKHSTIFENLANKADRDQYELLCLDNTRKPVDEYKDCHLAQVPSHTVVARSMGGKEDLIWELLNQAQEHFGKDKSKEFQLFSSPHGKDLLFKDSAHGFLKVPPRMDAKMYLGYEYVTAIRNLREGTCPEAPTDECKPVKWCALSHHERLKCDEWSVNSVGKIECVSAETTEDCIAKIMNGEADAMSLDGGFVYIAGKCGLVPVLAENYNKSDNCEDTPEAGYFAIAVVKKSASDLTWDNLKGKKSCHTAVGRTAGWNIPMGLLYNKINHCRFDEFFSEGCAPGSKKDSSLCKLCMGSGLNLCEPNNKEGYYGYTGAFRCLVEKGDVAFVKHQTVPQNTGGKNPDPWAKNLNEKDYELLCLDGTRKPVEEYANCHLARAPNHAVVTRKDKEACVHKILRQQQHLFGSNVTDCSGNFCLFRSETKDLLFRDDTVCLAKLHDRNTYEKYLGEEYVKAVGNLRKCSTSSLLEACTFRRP
Test name: Thermodynamic parameters of apo-hTf complex formation
Assay type: binding
Condition summary: pH 7.4, from Ksv at 296-317 K
Consider the cut-off 2 kcal/mol. If the recorded ∆H° is strictly smaller, the label is criterion met; if not, the label is criterion not met.

Q. Item N.N.[Cl][Pt][Cl] [(NH3)2Pt(II)Cl2, cis-diamminedichloroplatinum (II), reference compound] : ∆H° beneath 2 kcal/mol, strictly?
A. criterion met

Q. Item C1CCCC1.C1CCCC1.[Cl][W][Cl] : ∆H° beneath 2 kcal/mol, strictly?
A. criterion not met

Q. Item [Cl-].[Cl-].[Hf+4].c1cc[cH-]c1.c1cc[cH-]c1 : ∆H° beneath 2 kcal/mol, strictly?
A. criterion met

Q. Item [Cl-].[Cl-].[Ti+4].c1cc[cH-]c1.c1cc[cH-]c1 [Cp2TiCl2, titanocene dichloride] : ∆H° beneath 2 kcal/mol, strictly?
A. criterion met

Q. Item [Cl][Zr+2][Cl].c1cc[cH-]c1.c1cc[cH-]c1 : ∆H° beneath 2 kcal/mol, strictly?
A. criterion met

Q. Item [Cl-].[Cl-].[V+4].c1cc[cH-]c1.c1cc[cH-]c1 : ∆H° beneath 2 kcal/mol, strictly?
A. criterion not met

Q. Item [Cl-].[Cl-].[Mo+4].c1cc[cH-]c1.c1cc[cH-]c1 : ∆H° beneath 2 kcal/mol, strictly?
A. criterion not met

Q. Item C1CCCC1.C1CCCC1.[Cl][Nb][Cl] : ∆H° beneath 2 kcal/mol, strictly?
A. criterion not met

----------
Measurement target: apo-human transferrin (apo-hTf) (Homo sapiens)
Test name: UV-Vis absorbance titration of apo-hTf
Format: binding
Condition summary: absorbance at 280 nm
So I've got a bunch of compounds here, and I need their Ka at 280 nm values.

Q. Using the record for [Cl-].[Cl-].[Hf+4].c1cc[cH-]c1.c1cc[cH-]c1 , state its measured Ka at 280 nm.
A. 2110 M⁻¹

Q. Using the record for N.N.[Cl][Pt][Cl] [(NH3)2Pt(II)Cl2, cis-diamminedichloroplatinum (II), reference compound] , state its measured Ka at 280 nm.
A. 740 M⁻¹

Q. Using the record for C1CCCC1.C1CCCC1.[Cl][Nb][Cl] , state its measured Ka at 280 nm.
A. 3000 M⁻¹

Q. Using the record for C1CCCC1.C1CCCC1.[Cl][W][Cl] , state its measured Ka at 280 nm.
A. 2930 M⁻¹

Q. Using the record for [Cl-].[Cl-].[Mo+4].c1cc[cH-]c1.c1cc[cH-]c1 , state its measured Ka at 280 nm.
A. 3060 M⁻¹

Q. Using the record for [Cl][Zr+2][Cl].c1cc[cH-]c1.c1cc[cH-]c1 , state its measured Ka at 280 nm.
A. 2220 M⁻¹

Q. Using the record for [Cl-].[Cl-].[Ti+4].c1cc[cH-]c1.c1cc[cH-]c1 [Cp2TiCl2, titanocene dichloride] , state its measured Ka at 280 nm.
A. 2890 M⁻¹

Q. Using the record for [Cl-].[Cl-].[V+4].c1cc[cH-]c1.c1cc[cH-]c1 , state its measured Ka at 280 nm.
A. 3240 M⁻¹

----------
Measurement target: apo-human transferrin (apo-hTf) (Homo sapiens, UniProt P02787)
Test name: Fluorescence quenching of apo-hTf
Assay type: binding
Condition summary: 310 K, pH 7.4, modified Stern-Volmer
So I've got a bunch of molecules here, and I need their quenching association constant Ka values.

Q. Recall the reported quenching association constant Ka of C1CCCC1.C1CCCC1.[Cl][W][Cl] [Cp2WCl2] when tested on apo-human transferrin (apo-hTf) (Homo sapiens, UniProt P02787).
A. 4200 M⁻¹

Q. Recall the reported quenching association constant Ka of [Cl-].[Cl-].[V+4].c1cc[cH-]c1.c1cc[cH-]c1 [Cp2VCl2] when tested on apo-human transferrin (apo-hTf) (Homo sapiens, UniProt P02787).
A. 240500 M⁻¹

Q. Recall the reported quenching association constant Ka of N.N.[Cl][Pt][Cl] [(NH3)2Pt(II)Cl2, cis-diamminedichloroplatinum (II), reference compound] when tested on apo-human transferrin (apo-hTf) (Homo sapiens, UniProt P02787).
A. 1400 M⁻¹

----------
Measurement target: apo-human transferrin (apo-hTf) (Homo sapiens)
Test name: Far-UV circular dichroism titration of apo-hTf, secondary structure content
Condition summary: compound concentration 1.2 (M)
So I've got a bunch of compounds here, and I need their random coil content of apo-hTf values.
Lab book: enter the figure in %, no units written.

Q. Using the record for N.N.[Cl][Pt][Cl] [(NH3)2Pt(II)Cl2, cis-diamminedichloroplatinum (II), reference compound] , state its measured random coil content of apo-hTf.
A. 34

Q. Using the record for [Cl-].[Cl-].[V+4].c1cc[cH-]c1.c1cc[cH-]c1 , state its measured random coil content of apo-hTf.
A. 34.1

Q. Using the record for [Cl-].[Cl-].[Mo+4].c1cc[cH-]c1.c1cc[cH-]c1 , state its measured random coil content of apo-hTf.
A. 34.1

Q. Using the record for C1CCCC1.C1CCCC1.[Cl][W][Cl] , state its measured random coil content of apo-hTf.
A. 33.9

Q. Using the record for [Cl][Zr+2][Cl].c1cc[cH-]c1.c1cc[cH-]c1 , state its measured random coil content of apo-hTf.
A. 33.9

----------
So I've got a bunch of molecules here, and I need their ∆G° values.
Measurement target: apo-human transferrin (apo-hTf) (Homo sapiens)
Test name: Thermodynamic parameters of apo-hTf complex formation
Format: binding
Condition summary: 317 K
Lab book: enter the figure in kcal/mol, no units written.

Q. Using the record for C1CCCC1.C1CCCC1.[Cl][W][Cl] [Cp2WCl2] , state its measured ∆G°.
A. -4.809

Q. Using the record for N.N.[Cl][Pt][Cl] [(NH3)2Pt(II)Cl2, cis-diamminedichloroplatinum (II), reference compound] , state its measured ∆G°.
A. -4.252

Q. Using the record for [Cl-].[Cl-].[V+4].c1cc[cH-]c1.c1cc[cH-]c1 [Cp2VCl2] , state its measured ∆G°.
A. -6.797

Q. Using the record for [Cl-].[Cl-].[Mo+4].c1cc[cH-]c1.c1cc[cH-]c1 [Cp2MoCl2] , state its measured ∆G°.
A. -4.792

Q. Using the record for C1CCCC1.C1CCCC1.[Cl][Nb][Cl] [Cp2NbCl2] , state its measured ∆G°.
A. -6.561

----------
Measurement target: apo-human transferrin (apo-hTf) (Homo sapiens)
Test name: Far-UV circular dichroism titration of apo-hTf, secondary structure content
Condition summary: compound concentration 1.6 (M)
So I've got a bunch of compounds here, and I need their other secondary structure content of apo-hTf values.
Lab book: enter the figure in %, no units written.

Q. Using the record for N.N.[Cl][Pt][Cl] [(NH3)2Pt(II)Cl2, cis-diamminedichloroplatinum (II), reference compound] , state its measured other secondary structure content of apo-hTf.
A. 19.3

Q. Using the record for [Cl][Zr+2][Cl].c1cc[cH-]c1.c1cc[cH-]c1 [Cp2ZrCl2] , state its measured other secondary structure content of apo-hTf.
A. 18.9

Q. Using the record for [Cl-].[Cl-].[V+4].c1cc[cH-]c1.c1cc[cH-]c1 [Cp2VCl2] , state its measured other secondary structure content of apo-hTf.
A. 20.7

Q. Using the record for C1CCCC1.C1CCCC1.[Cl][W][Cl] [Cp2WCl2] , state its measured other secondary structure content of apo-hTf.
A. 19.1

Q. Using the record for [Cl-].[Cl-].[Hf+4].c1cc[cH-]c1.c1cc[cH-]c1 [Cp2HfCl2] , state its measured other secondary structure content of apo-hTf.
A. 19.1

Q. Using the record for C1CCCC1.C1CCCC1.[Cl][Nb][Cl] [Cp2NbCl2] , state its measured other secondary structure content of apo-hTf.
A. 19.8

Q. Using the record for [Cl-].[Cl-].[Ti+4].c1cc[cH-]c1.c1cc[cH-]c1 [Cp2TiCl2, titanocene dichloride] , state its measured other secondary structure content of apo-hTf.
A. 18.9

Q. Using the record for [Cl-].[Cl-].[Mo+4].c1cc[cH-]c1.c1cc[cH-]c1 [Cp2MoCl2] , state its measured other secondary structure content of apo-hTf.
A. 20

Data origin, for the record: paper PMC7668563
